assayed.target: ΔF508-CFTR (Homo sapiens, UniProt P13569, DEL508-508)
Construct: host or cells: CFBE41o-, doxycycline-inducible
Sequence (P13569 with tags, fused parts or gaps DEL508-508): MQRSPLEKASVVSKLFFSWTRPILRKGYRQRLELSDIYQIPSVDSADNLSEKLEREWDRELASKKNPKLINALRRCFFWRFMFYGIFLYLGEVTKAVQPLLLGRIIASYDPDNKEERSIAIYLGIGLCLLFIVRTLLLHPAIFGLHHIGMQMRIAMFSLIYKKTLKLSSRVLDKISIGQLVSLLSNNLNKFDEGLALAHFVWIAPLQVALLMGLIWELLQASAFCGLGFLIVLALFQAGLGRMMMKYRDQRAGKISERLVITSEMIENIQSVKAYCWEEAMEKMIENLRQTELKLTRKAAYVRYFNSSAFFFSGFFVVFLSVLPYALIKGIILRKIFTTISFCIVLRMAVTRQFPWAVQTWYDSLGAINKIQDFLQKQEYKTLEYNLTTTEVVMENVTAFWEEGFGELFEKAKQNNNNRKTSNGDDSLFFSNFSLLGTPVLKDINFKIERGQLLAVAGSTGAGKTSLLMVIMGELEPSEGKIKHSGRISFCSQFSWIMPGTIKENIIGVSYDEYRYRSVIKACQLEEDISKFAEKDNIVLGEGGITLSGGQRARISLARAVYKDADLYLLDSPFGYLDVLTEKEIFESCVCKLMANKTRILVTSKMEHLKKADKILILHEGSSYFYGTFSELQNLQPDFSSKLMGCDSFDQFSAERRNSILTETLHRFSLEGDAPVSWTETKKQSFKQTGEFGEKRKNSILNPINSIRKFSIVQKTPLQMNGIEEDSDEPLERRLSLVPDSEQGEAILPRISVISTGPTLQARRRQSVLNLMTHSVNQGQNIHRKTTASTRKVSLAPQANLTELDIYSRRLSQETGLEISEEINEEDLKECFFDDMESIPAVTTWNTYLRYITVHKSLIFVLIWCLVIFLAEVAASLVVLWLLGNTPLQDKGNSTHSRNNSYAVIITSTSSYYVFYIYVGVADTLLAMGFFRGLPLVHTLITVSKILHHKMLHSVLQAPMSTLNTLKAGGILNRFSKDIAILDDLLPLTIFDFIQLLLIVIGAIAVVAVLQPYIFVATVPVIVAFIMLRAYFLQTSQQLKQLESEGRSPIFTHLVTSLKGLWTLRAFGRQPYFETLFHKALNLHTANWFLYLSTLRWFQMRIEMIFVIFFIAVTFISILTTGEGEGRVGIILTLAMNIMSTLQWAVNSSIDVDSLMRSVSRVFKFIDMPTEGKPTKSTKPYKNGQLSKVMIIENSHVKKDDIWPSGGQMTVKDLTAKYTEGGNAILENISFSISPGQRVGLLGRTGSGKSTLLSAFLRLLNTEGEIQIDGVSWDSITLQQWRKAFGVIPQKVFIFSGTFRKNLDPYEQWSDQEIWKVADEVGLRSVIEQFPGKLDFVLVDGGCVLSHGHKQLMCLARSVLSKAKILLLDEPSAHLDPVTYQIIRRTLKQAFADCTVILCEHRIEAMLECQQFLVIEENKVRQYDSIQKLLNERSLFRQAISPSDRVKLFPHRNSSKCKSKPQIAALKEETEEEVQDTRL
experiment.notes: CFTR cell surface levels using HRP-tagged ΔF508-CFTR expressing CFBE cells, in the presence of a co-corrector
Assay type: cell-based
recorded.conditions: HRP-tagged ΔF508-CFTR expressing CFBE cells, in the presence of 3 μM co-corrector
% Activation: recorded values
Dear colleague, please return just the value in %, with no unit written.

O=C(O)c1cc(N2C[C@H](O)[C@@H](O)C2)c2c(C3CCC3)nn(-c3ccccc3)c2n1 [compound 446]	171.35

Which % Activation is listed for Cc1nn(-c2cccc(N(C)C)c2)c2nc(C(=O)O)cc(-c3ccc(N4CCOCC4)cc3)c12 [compound 36] ?
364.5

Fill in the blank: the reported % Activation of CC(C)c1nn(C2CCCCC2)c2nc(C(=O)O)cc(-c3ccc(N4CCOC(C)(C)C4)nc3)c12 [compound 197] is ____.
445.2

Any idea what % Activation was measured for O=C(O)c1cc(N2CCC(N3CCOCC3)CC2)c2c(C3CCC3)nn(-c3ccc4c(c3)OC(F)(F)O4)c2n1 [compound 906] ?
485.34

Query (compound): CC(C)CN1C[C@@H]2CN(c3cc(C(=O)O)nc4c3c(C3CCC3)nn4-c3ccccc3)C[C@@H]2C1 [compound 692] ; field requested: % Activation
381.4

Fill blank: measured % Activation of the compound O=C(O)c1cc(N2CCOC(CN3CCCCC3)C2)c2c(C3CCC3)nn(-c3ccccc3)c2n1 (stereo not shown) [compound 556] is ____.
324

% Activation for CC(C)c1nn(-c2ccc(F)cc2)c2nc(C(=O)O)cc(OCC3(C)CC(F)(F)C3)c12 [compound 652] ?
310.6
